- targetEntity: T. brucei AdoMetDC/prozyme (Trypanosoma brucei brucei)
- Sequence (P50244 86-370 limits assumed): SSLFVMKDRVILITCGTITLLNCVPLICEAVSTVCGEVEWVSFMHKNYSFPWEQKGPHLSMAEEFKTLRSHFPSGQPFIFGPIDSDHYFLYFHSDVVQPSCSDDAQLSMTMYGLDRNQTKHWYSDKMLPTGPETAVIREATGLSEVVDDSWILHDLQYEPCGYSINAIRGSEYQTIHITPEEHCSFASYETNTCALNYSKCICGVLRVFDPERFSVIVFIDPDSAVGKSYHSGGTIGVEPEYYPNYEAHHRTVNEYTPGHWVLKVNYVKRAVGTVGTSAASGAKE
- experimentDescription: T. brucei AdoMetDC enzyme activity assay
- Format: biochemical
- measurementConditions: read-out: AdoMetDC IC50; pre-incubation not stated
pIC50: −log10 of the molar value.

{"compound": "CN(CC=CCN)CC1OC(n2cnc3c(N)ncnc32)C2OC3(CCCCC3)OC12 (stereo not shown) [Compound 22]", "pIC50": "< 4.30"}
